Attribution: ChEMBL document CHEMBL4049443

Test: Plasma concentration C57BL/6Rj mouse at 10 mg/kg administered as single dose via oral gavage after 24 hrs by LC-MS/MS analysis
Assay type: ADME, organism-based

- Compound: "CCc1nc2c(C)cc(N3CCN(CC(=O)N4CC(O)C4)CC3)cn2c1N(C)c1nc(-c2ccc(F)cc2)c(C#N)s1 [ZIRITAXESTAT]"
  concentration at 24 h [ng/mL]: 4

---

Molecular target: Autotaxin (Mus musculus, UniProt Q9R1E6)
Experiment: Inhibition of ATX in mouse plasma assessed as reduction in LPA 18:2 production after 2 hrs by LC-MS/MS analysis
pIC50: −log10 of the molar value.

- Compound: "CCc1nc2c(C)cc(N3CCN(CC(=O)N4CC(O)C4)CC3)cn2c1N(C)c1nc(-c2ccc(F)cc2)c(C#N)s1 [ZIRITAXESTAT]"
  Target Of Assay: "Autotaxin (Mus musculus, UniProt Q9R1E6)"
  pIC50: 6.38

---

Test: Plasma concentration in C57BL/6Rj mouse at 3 mg/kg administered as single dose via oral gavage after 24 hrs by LC-MS/MS analysis
Format: ADME, organism-based

- Structure As Smiles: "CCc1nc2c(C)cc(N3CCN(CC(=O)N4CC(O)C4)CC3)cn2c1N(C)c1nc(-c2ccc(F)cc2)c(C#N)s1"
  concentration at 24 h, ng/mL: 1

---

Assay: Tmax in C57BL/6Rj mouse at 10 mg/kg administered as single dose via oral gavage up to 24 hrs by LC-MS/MS analysis
Type: ADME, organism-based
Conditions: in vivo

- Structure As Smiles: "CCc1nc2c(C)cc(N3CCN(CC(=O)N4CC(O)C4)CC3)cn2c1N(C)c1nc(-c2ccc(F)cc2)c(C#N)s1"
  Tmax: "1 h"

---

Assay: Protein binding to dog plasma
Format: ADME, cell-free, Canis lupus familiaris
Details: read-out: PPB

- Structure As Smiles: "CCc1nc2c(C)cc(N3CCN(CC(=O)N4CC(O)C4)CC3)cn2c1N(C)c1nc(-c2ccc(F)cc2)c(C#N)s1"
  fraction unbound: "< 0.01"

---

Assay: Protein binding to mouse plasma
Format: ADME, cell-free
Conditions: read-out: PPB
Readout Type: fraction unbound

- Structure As Smiles: "CCc1nc2c(C)cc(N3CCN(CC(=O)N4CC(O)C4)CC3)cn2c1N(C)c1nc(-c2ccc(F)cc2)c(C#N)s1"
  Reported Result: "< 0.01"

---

Assay: AUC (0 to 24 hrs) in C57BL/6Rj mouse at 30 mg/kg administered as single dose via oral gavage by LC-MS/MS analysis
Format: ADME, organism-based
Design: dose 30 mg/kg, time < 24 hr, route oral
Settings: in vivo

- Structure As Smiles: "CCc1nc2c(C)cc(N3CCN(CC(=O)N4CC(O)C4)CC3)cn2c1N(C)c1nc(-c2ccc(F)cc2)c(C#N)s1"
  Unit Abbrev: "µg·h/mL"
  AUC(0-t) at 24 h: 101
